This collection of values is drawn from patent US11542263B2.

# Assay Method Text: Approximate solubility of TPA023B Phosphate in solvents (stepwise solvent addition)
# Type: physicochemical
# Cond: organic solvent or mixture, thermodynamic from solid; Acetone, 50° C.
Assay Endpoint: solubility

Input: solubility lookup needed for CC(C)(O)c1cnn2c(-c3ccc(F)c(-c4c(F)cccc4C#N)c3)cnc2n1.O=P(O)(O)O [Phosphate Polymorphic Form A] , thanks.
Output: < 10000 µg/mL

---

# Assay Method Text: Approximate solubility of TPA023B Phosphate in solvents (stepwise solvent addition)
# Format: physicochemical
# Cond: organic solvent or mixture, thermodynamic from solid; 1,4-Dioxane, 50° C.
Assay Endpoint: solubility

Input: solubility lookup needed for CC(C)(O)c1cnn2c(-c3ccc(F)c(-c4c(F)cccc4C#N)c3)cnc2n1.O=P(O)(O)O [Phosphate Polymorphic Form A] , thanks.
Output: 20 to 25 mg/mL
